# procedure details: amyloid nucleation score (Sup35N fusion, yeast selection) (log enrichment); library NNK1; higher = more nucleation; inactive = no reads after selection;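 further: zero at mode of non-aggregating sequences after 7 days selection at 30°C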
Could you please report measured amyloid nucleation score for the items listed next?

Recorded amyloid nucleation score (substance SLEDLWTRVERIRASEPVLG ): -0.293

Recorded amyloid nucleation score (substance CDYAVGHNVDFYYLTSNPSG ): -0.301

Recorded amyloid nucleation score (substance ISISLRHECRYKMFEQ ): 2.22

Recorded amyloid nucleation score (substance SHYTHVFLM ): -0.468

Recorded amyloid nucleation score (substance SFVSRGCSYCC ): -0.489

Recorded amyloid nucleation score (substance CRIQFSSVRMDDSCAQGRKD ): 0.504

Recorded amyloid nucleation score (substance SSPRTLRGLIYGRIKYYVLE ): 1.84

Recorded amyloid nucleation score (substance GYSYTCPLS ): -0.217

Recorded amyloid nucleation score (substance GICHSPGWCC ): 2.69

Recorded amyloid nucleation score (substance WPLRESCGICERRAWCRSAY ): 0.923

Recorded amyloid nucleation score (substance YTNGNIASTVLYLRPGYHLA ): 1.06

Recorded amyloid nucleation score (substance LGFVDISGSYEVLGGYPSLR ): 0.031

Recorded amyloid nucleation score (substance FIRCVNSV ): -0.745

Recorded amyloid nucleation score (substance KSTRWQIRSDALDVSERCFS ): 1

Recorded amyloid nucleation score (substance GSTSCK ): 0.79

Recorded amyloid nucleation score (substance VDLVGYVVGIFNVYKVVEDT ): -0.321

Recorded amyloid nucleation score (substance FANLVYGQLRVNDTLVSCT ): -0.044

Recorded amyloid nucleation score (substance LRNVVSYREDFECSWGCHRG ): 0.724

Recorded amyloid nucleation score (substance VGRTNFYCYWFPCRSLDLLS ): 5.8

Recorded amyloid nucleation score (substance YIVYFESRN ): 0.438

Recorded amyloid nucleation score (substance IEAYYGIPDVKHMLVYLRQD ): -0.284

Recorded amyloid nucleation score (substance ICGTCCMPNLFVHHYIFLSP ): 6.71

Recorded amyloid nucleation score (substance DMIDSGGNALHSSQAHNYRR ): 1.08

Recorded amyloid nucleation score (substance KGWKTVVHCRDYGQVNNFGS ): 2.22

Recorded amyloid nucleation score (substance NWIVCRPDAGMQPRTNNLIV ): -0.536

Recorded amyloid nucleation score (substance ELYCEVSSKIAGLDLFV ): 0.57

Recorded amyloid nucleation score (substance TFSYILDWFEVSLTHRGALI ): 0.192

Recorded amyloid nucleation score (substance AGSLAM ): -0.246

Recorded amyloid nucleation score (substance ALKQPVYDGRGPRLGIGPRR ): -0.124

Recorded amyloid nucleation score (substance FTRKLPSFVLL ): 0.392

Recorded amyloid nucleation score (substance SSIAAIVM ): 0.723

Recorded amyloid nucleation score (substance GSVAKRPVVKISRHPLCMVW ): 0.364

Recorded amyloid nucleation score (substance YLIMGNVFNVAVVGGIGCVE ): 0.345

Recorded amyloid nucleation score (substance NYICMGP ): 1.38

Recorded amyloid nucleation score (substance TGCLVTWNIENLLRHQTFAM ): 0.227

Recorded amyloid nucleation score (substance ARYSRRRKVMSLLVTGEMDA ): -0.038

Recorded amyloid nucleation score (substance LVTRGFEVRGDHQVIKYFLA ): -0.6

Recorded amyloid nucleation score (substance FPCSRIELVVSVCVAWVNSC ): 1.42

Recorded amyloid nucleation score (substance DTGSFFVSVRLSAWVIPPCK ): -0.063

Recorded amyloid nucleation score (substance LFKLSLGCTYCSFA ): -0.292

Recorded amyloid nucleation score (substance KSVVLHWYAYSMLYPLWNLV ): 0.511

Recorded amyloid nucleation score (substance QLRHLHSNVLLRDIWLGFKF ): -1.01

Recorded amyloid nucleation score (substance TTLIILDTYLNMIVVGTLYW ): 0.11

Recorded amyloid nucleation score (substance RGGSYMFRLYCVFLYGCYFG ): -0.577

Recorded amyloid nucleation score (substance VSFIYFRVWILAMDY ): 0.842

Recorded amyloid nucleation score (substance KIIPRRRKSFMLNTFKYPHD ): 1.62

Recorded amyloid nucleation score (substance TRSVWIEDRVTRAARFKGQR ): -0.116

Recorded amyloid nucleation score (substance RKFMDYSLKFSWRGVIPVMR ): -1.83

Recorded amyloid nucleation score (substance YWIIKVRNRLVPRFFKYKGS ): -0.491

Recorded amyloid nucleation score (substance ALMNGQMVTGALITEWYNWC ): 0.439

Recorded amyloid nucleation score (substance LTRVWSVTCVCSFGRPYK ): 2.13

---

# procedure details: amyloid nucleation score (Sup35N fusion, yeast selection) (log enrichment); library NNK2; higher = more nucleation; inactive = no reads after selection
Would you mind labelling by amyloid nucleation score? At or over -0.03 is met, under is not met.

Challenge: Item YRARKASLTDVSSSVKVNMS with amyloid nucleation score of -0.03 or above?
Response given: met

Challenge: Item CFIPLGVNFGDRTWLTVRIR with amyloid nucleation score of -0.03 or above?
Response given: met

Challenge: Item FRYIFRHKHGWTFLHKMVRK with amyloid nucleation score of -0.03 or above?
Response given: not met

Challenge: Item CFFSNQMADGYPQRWAVLRD with amyloid nucleation score of -0.03 or above?
Response given: met

Challenge: Item MWRGQCV with amyloid nucleation score of -0.03 or above?
Response given: met

---

# procedure details: amyloid nucleation score (Sup35N fusion, yeast selection) (log enrichment); library NNK3; higher = more nucleation; inactive = no reads after selection
readout name: amyloid nucleation score

residue codes	amyloid nucleation score
ACSRKISSIVATSRLVSTSG	inactive
FVSRGKLLPNAPGFMWFLLR	-0.533
SNAFSGLRQLPPSNDSLCKG	inactive
YKYDRFWKVFHQGRTLVAGG	inactive

Recorded amyloid nucleation score (sequence GCFILLNWVMQGKLAYTSLI ): inactive

Recorded amyloid nucleation score (sequence RMLMIMVACVGTYDSSN ): inactive

Recorded amyloid nucleation score (sequence SVFDMDSMGTS ): inactive

Recorded amyloid nucleation score (sequence STVVNSYMNFCACKGSNMAC ): 2.7

Recorded amyloid nucleation score (sequence NVVLSVGMFLLKWS ): 1.31

Recorded amyloid nucleation score (sequence CVPHRRAIVGFFRGCVNAAS ): inactive

---

# procedure details: amyloid nucleation score (Sup35N fusion, yeast selection) (log enrichment); library NNK1; higher = more nucleation; inactive = no reads after selection
// class assignment uses amyloid nucleation score with these ranges: low value = under -0.4, medium value = from -0.4 up to 0.2, high value = 0.2 and over

Challenge: Looking at VVKVWPYYSYVSMV , which class would you pick?
Response given: medium value

Challenge: Looking at LCNIITGVSSIGAYWSTKIL , which class would you pick?
Response given: high value

Challenge: Looking at WAVSGVDKVTRLGSEGVMQS , which class would you pick?
Response given: low value

Challenge: Looking at NVISRSLVMYMYKEERPASA , which class would you pick?
Response given: medium value

Challenge: Looking at CAACSSQLYCEWFMNALLGM , which class would you pick?
Response given: low value

Challenge: Looking at MFSVFNRKRN , which class would you pick?
Response given: medium value

Challenge: Looking at SRLRLGIRTDLG , which class would you pick?
Response given: high value

Challenge: Looking at YGNYGCLGRWNSLHTCSQIC , which class would you pick?
Response given: low value

Challenge: Looking at KVLMTAGFYVVLRALKHRTK , which class would you pick?
Response given: high value

Challenge: Looking at PFRSFLCRVIRALGLY , which class would you pick?
Response given: high value

Challenge: Looking at PLCSNRIERMLLSVGCGRRR , which class would you pick?
Response given: low value

Challenge: Looking at EPFETQEVMSLNMCSNQMVF , which class would you pick?
Response given: high value

Challenge: Looking at APCRVMIYINMSMDYWTMES , which class would you pick?
Response given: high value

Challenge: Looking at CSFYHVFRCSVGFDVFFSTD , which class would you pick?
Response given: medium value

---

# procedure details: amyloid nucleation score (Sup35N fusion, yeast selection) (log enrichment); library NNK2; higher = more nucleation; inactive = no reads after selection
readout name: amyloid nucleation score
Response field accepts a number only; no unit should be typed.

Recorded amyloid nucleation score (substance MTMMVGRIISTNRVYS ): 1.29

Recorded amyloid nucleation score (substance NSHFALDGKSW ): -0.711

Recorded amyloid nucleation score (substance NRNQRSVDRCGFSWYGTQIG ): 1.3

Recorded amyloid nucleation score (substance CVFLHSALSQYRVIIVTWYP ): -0.237

Recorded amyloid nucleation score (substance NTRCRSVTLMLGFSMESKVH ): 0.76

Recorded amyloid nucleation score (substance SAGEKWWKGMHYARGRPVRR ): 0.726

Recorded amyloid nucleation score (substance LSRSMK ): -0.326

Recorded amyloid nucleation score (substance HVLYDCMGVIIKSCHYLDLC ): -0.508

Recorded amyloid nucleation score (substance RCRISVWVVGSCLSRMYG ): 4.29

Recorded amyloid nucleation score (substance RILYMMDFSFGANSIYFYWN ): 4.4

Recorded amyloid nucleation score (substance VGMTTSWMVDPHGGRPGYHS ): 2.01

Recorded amyloid nucleation score (substance IFEVRLPQELSSYSHFGGGC ): 0.706

Recorded amyloid nucleation score (substance LYWYKY ): -0.414

Recorded amyloid nucleation score (substance SDNEEKTCGAFVVLS ): -0.719

Recorded amyloid nucleation score (substance NDHLGVS ): 3.69

Recorded amyloid nucleation score (substance VVGSWYKSGRKRLQRDDALS ): -1.03
